- System: RXF 393 renal
- testName: NCI tumour cell line growth inhibition, 48 h
GI50: recorded values

molecule	GI50
COc1cc(/C=N/NC(=O)c2ccccc2Nc2cccc(C(F)(F)F)c2)cc(OC)c1OC	2.35 µM
O=C(/C=C/c1ccc([N+](=O)[O-])cc1)c1cccc(Nc2nc(Nc3ccccc3)nc(Nc3ccccc3)n2)c1	5.99 µM
COc1cccc2c1cc1c3c(cc4c(c32)OCO4)C(=O)N1	2.04 µM
Cc1cc2nc(-c3c(F)cccc3Cl)n(Cc3c(F)cccc3Cl)c2cc1C	11.8 µM
O=C(Nc1cccc(C(F)(F)F)c1)c1cc2ccccc2cc1O	3.3 µM
O=C1/C(=C\c2ccccc2)C2OCC=C3CN4CCC56c7ccccc7N1C5C2C3CC46 (stereo unspecified)	35.8 µM
CC(=O)[C-](C(C)=O)c1ccccc1.CC(=O)[C-](C(C)=O)c1ccccc1.CC(=O)[C-](C(C)=O)c1ccccc1.[Cl-].[Zr+4]	28.1 µM
O=C(/C=C/c1cccc2ccccc12)Nc1ncc(Cc2ccccc2)s1	0.436 µM
COc1ccc(C2=Nc3c/c(=C\c4c(O)[nH]c5cc(Cl)ccc45)ccc3=N2)cc1	3.16 µM
O=C(Nc1nc2ccccc2s1)c1cc(-c2ccc(F)cc2)n2nc(-c3ccccc3)cc2n1	2.53 µM
COc1ccc(-c2nc(C(=O)c3ccccc3)n(CC(=O)c3ccc(Cl)cc3)c2-c2ccc(OC)cc2)cc1	> 100 µM

---

- System: NCI-H460 lung
- testName: NCI tumour cell line growth inhibition, 48 h
readout: TGI (µM)

molecule	endpointUnit	prefixOperator	observed
CCOC(=O)C1=C(C)N(Cc2ccccc2)C2(O)C=CC(=O)C3=C(O)c4ccccc4C(=O)C312 (stereo not given)	µM	=	24.4
C=CC(C)(O)CC/C=C(\CO)C(=O)OC1C(C)OC(O[C@](C)(C=C)CC/C=C(\CO)C(=O)O[C@H]2C[C@@]3(C(=O)OC4OC(CO)C(O)C(O)C4OC4OC(C)C(OC5OC(CO)C(O)C5O)C(OC5OC(CO)C(O)C(O)C5O)C4O)C(CC2(C)C)C2=CCC4[C@@]5(C)CC[C@H](OC6OC(COC7OC(C)C(O)C(O)C7OC7OCC(O)C(O)C7O)C(O)C(O)C6NC(C)=O)C(C)(C)C5CC[C@@]4(C)[C@]2(C)C[C@H]3O)C(O)C1O (stereo not given in full)	µM	=	9.79
COc1cc2c(cc1OCCCOc1ccc(-c3nc4ccc(N5CCN(C)CC5)cc4[nH]3)cc1)N=C[C@@H]1CCCN1C2=O	µM	<	0.0505
Nc1cc2c3c(cccc3c1)C(=O)N(c1ccc(OCCN3CCCC3)cc1)C2=O	µM	=	23.7
C[C@H](CCC(=O)NCC(=O)O)[C@H]1CC[C@H]2[C@@H]3[C@H](O)C[C@@H]4C[C@H](O)CC[C@]4(C)[C@H]3CC[C@]12C	µM	>	100

---

- System: HOP-62 NSCLC
- testName: NCI tumour cell line growth inhibition, 48 h; in the data active = GI50 below about 0.43 µM; inactive = the rest
Labels: true (active), false (inactive)

compound	systemUnderTest	labelClass
CC1OC(=O)C(C(C)C)NC(=O)C(C(C)C)OC(=O)C(C(C)C)NC(=O)C(C)OC(=O)C(C(C)C)NC(=O)C(C(C)C)OC(=O)C(C(C)C)NC(=O)C(C)OC(=O)C(C(C)C)NC(=O)C(C(C)C)OC(=O)C(C(C)C)NC1=O (centres undefined)	HOP-62 NSCLC	true
Cc1cc2nc(-c3c(F)cccc3Cl)n(Cc3c(F)cccc3Cl)c2cc1C	HOP-62 NSCLC	false
O=C(Nc1nc2ccccc2s1)c1cc(-c2ccc(F)cc2)n2nc(-c3ccccc3)cc2n1	HOP-62 NSCLC	false
CCOC(=O)c1c(C)n(Cc2ccccc2)c2c1cc1oc(=O)c(=O)n3cnc2c13	HOP-62 NSCLC	false
